In this section, each of the molecules is paired with its reported IC50.
- experimental-system: Disintegrin and metalloproteinase domain-containing protein 17 (Homo sapiens)
- Sequence (P78536 whole entry, the tested form may be a part): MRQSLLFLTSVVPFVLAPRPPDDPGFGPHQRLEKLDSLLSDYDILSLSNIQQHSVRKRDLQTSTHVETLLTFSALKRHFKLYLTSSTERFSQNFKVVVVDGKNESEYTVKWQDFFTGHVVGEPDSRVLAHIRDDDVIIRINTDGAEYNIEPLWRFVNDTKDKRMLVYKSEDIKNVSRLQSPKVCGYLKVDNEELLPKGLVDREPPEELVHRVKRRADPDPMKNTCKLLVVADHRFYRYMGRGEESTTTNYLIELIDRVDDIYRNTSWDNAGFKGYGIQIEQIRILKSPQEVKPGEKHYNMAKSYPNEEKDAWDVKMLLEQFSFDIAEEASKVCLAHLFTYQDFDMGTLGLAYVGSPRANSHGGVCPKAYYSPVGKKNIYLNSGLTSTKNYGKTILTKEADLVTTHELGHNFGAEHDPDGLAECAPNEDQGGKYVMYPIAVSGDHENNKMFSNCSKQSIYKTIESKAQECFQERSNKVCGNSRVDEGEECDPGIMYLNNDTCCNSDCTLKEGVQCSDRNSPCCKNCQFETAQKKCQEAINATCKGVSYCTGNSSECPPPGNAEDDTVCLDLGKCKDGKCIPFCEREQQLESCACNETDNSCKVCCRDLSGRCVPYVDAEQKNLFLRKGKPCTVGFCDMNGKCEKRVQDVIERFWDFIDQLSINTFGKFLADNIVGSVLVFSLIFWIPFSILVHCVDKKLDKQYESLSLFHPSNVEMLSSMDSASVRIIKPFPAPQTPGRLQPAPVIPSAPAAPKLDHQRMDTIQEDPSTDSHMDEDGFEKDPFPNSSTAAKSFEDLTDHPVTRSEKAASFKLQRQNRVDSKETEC
- procedure-text: exosite inhibitors of ADAM17, dose response, biochemical (AID 743260)
Activity calls are given as the source filed them. How the calls were made is not given here.
quantity-name: IC50

molecule | quantity-name | val
COc1ccc(S(=O)(=O)NCC(c2ccco2)N2CCc3ccccc32)cc1 (stereo not given) | IC50 | > 69.5 µM (inactive)
CC1(O)N(Cc2ccccc2)C(=O)OC12CCCCC2 (stereo not given) | IC50 | > 69.5 µM (inactive)
Cc1ccc2c(c1)[C@H]1[C@H](CO2)[C@H](c2ccccc2)[C@]2(C)C(=O)N(Cc3ccc(Cl)cc3)CC(=O)N12 | IC50 | > 69.5 µM (inactive)
Nc1cc(OC(=O)c2c(F)cccc2Cl)nn1S(=O)(=O)c1ccccc1 | IC50 | > 69.5 µM (inactive)
O=C(Nc1cccc(-c2csc(-c3ccccc3)n2)c1)c1cccs1 | IC50 | > 69.5 µM (inactive)
